- Target Entity: SRC (Homo sapiens, UniProt P12931)
- Sequence (P12931 whole entry): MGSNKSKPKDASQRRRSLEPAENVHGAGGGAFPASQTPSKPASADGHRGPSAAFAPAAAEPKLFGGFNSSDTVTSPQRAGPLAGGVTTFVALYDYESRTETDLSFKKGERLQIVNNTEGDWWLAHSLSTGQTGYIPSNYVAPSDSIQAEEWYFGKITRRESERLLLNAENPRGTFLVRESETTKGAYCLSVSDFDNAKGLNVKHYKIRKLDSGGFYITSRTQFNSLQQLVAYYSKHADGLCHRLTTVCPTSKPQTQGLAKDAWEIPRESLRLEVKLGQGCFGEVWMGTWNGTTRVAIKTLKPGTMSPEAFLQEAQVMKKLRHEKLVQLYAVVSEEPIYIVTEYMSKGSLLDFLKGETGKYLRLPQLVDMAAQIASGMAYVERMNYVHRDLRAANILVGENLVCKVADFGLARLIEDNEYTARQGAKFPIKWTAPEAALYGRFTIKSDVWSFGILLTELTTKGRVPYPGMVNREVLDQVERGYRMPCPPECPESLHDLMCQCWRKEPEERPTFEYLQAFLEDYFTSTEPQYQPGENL
- Test Description: Inhibition of a panel of kinases, in vitro HotSpot kinase assay: SRC
- Type: biochemical
- Applied Conditions: D-compounds panel data; 1 μM ATP
pIC50: −log10 of the molar value.
Quantity: pIC50

(Q) Dear colleague, I am looking for the recorded pIC50 of the following molecule: Cc1ccc(-c2cnc([C@@H]3CCCN(c4cnc(C(N)=O)c(Nc5cc(C)ns5)n4)[C@@H]3C)[nH]2)cc1
(A) 6.00 to 7.00

(Q) Dear colleague, I am looking for the recorded pIC50 of the following molecule: C[C@@H]1[C@H](NC(=O)c2ccc(C3CC3)cc2)CCCN1c1cnc(C(N)=O)c(Nc2cnn(C)c2C(F)(F)F)n1
(A) < 5.00

(Q) Dear colleague, I am looking for the recorded pIC50 of the following molecule: C[C@@H]1[C@H](NC(=O)c2ccc(C3CC3)cc2F)CCCN1c1cnc(C(N)=O)c(Nc2ccc(C3(C)CCN(C4CCC4)CC3)cc2)n1
(A) 7.00 to 8.00

(Q) Dear colleague, I am looking for the recorded pIC50 of the following molecule: Cc1ncc(Nc2nc(N3CCC[C@@H](NC(=O)c4ccc(C5CC5)cc4F)C3)cnc2C(N)=O)s1
(A) < 5.00

(Q) Dear colleague, I am looking for the recorded pIC50 of the following molecule: C[C@@H]1[C@H](NC(=O)c2ccc(C3CC3)nc2)CCCN1c1cnc(C(N)=O)c(Nc2ccc(OC3CCOCC3)cc2)n1
(A) 7.00 to 8.00

(Q) Dear colleague, I am looking for the recorded pIC50 of the following molecule: Cn1cc(Nc2nc(N3CCC(NC(=O)c4ccc(C5CC5)cc4)C(O)C3)cnc2C(N)=O)cn1 (single isomer, unassigned) [Example D-29]
(A) 5.00 to 6.00

---

- Target Entity: BTK-WT (Homo sapiens)
- Construct: purified from insect cells as a full-length construct containing an N-terminal 6X-His tag; His6 (N); made in house; host or cells: insect cells (baculovirus Sf21 in Method B)
- Sequence (Q06187 whole entry): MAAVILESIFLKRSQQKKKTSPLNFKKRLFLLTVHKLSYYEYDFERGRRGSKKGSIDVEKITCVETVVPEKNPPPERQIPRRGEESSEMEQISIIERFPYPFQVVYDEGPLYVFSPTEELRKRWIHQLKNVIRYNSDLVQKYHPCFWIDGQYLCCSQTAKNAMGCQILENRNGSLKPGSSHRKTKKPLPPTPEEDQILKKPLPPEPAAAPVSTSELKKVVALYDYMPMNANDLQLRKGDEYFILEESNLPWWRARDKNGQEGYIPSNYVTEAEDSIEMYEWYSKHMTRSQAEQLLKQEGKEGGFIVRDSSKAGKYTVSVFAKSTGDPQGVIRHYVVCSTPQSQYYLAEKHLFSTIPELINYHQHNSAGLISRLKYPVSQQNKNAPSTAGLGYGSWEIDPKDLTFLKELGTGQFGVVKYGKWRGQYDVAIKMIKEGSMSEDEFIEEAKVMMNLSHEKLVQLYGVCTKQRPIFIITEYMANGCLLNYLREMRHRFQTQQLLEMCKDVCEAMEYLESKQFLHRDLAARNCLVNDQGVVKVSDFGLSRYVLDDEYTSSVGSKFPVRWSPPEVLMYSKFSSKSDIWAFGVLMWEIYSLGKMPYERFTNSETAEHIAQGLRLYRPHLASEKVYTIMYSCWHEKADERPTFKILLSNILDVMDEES
- Test Description: Btk in vitro inhibitory activity (one of Method A TR-FRET, Method B electrophoretic mobility shift, Method C radiometric filter binding)
- Format: biochemical
- Applied Conditions: D-compounds panel data; read-out: IC50 BTK-WT
pIC50: −log10 of the molar value.
Quantity: pIC50

(Q) Dear colleague, I am looking for the recorded pIC50 of the following compound: C[C@@H]1[C@H](NC(=O)c2ccc(C(C)(C)O)cc2)CCCN1c1nnc(C(N)=O)c(Nc2cnn(C)c2)n1
(A) ≥ 8.00

(Q) Dear colleague, I am looking for the recorded pIC50 of the following compound: C[C@@H]1[C@H](NC(=O)c2ccc(C3(O)CCCC3)cc2)CCCN1c1cnc(C(N)=O)c(Nc2cnn(C)c2)n1
(A) ≥ 8.00

(Q) Dear colleague, I am looking for the recorded pIC50 of the following compound: COCCN(C)c1ccc(C(=O)N[C@@H]2CCCN(c3cnc(C(N)=O)c(Nc4cnn(C)c4)n3)[C@@H]2C)cc1
(A) ≥ 8.00

(Q) Dear colleague, I am looking for the recorded pIC50 of the following compound: Cc1cc(Nc2nc(N3C[C@@H](NC(=O)c4ccc(C5CC5)cc4F)CC[C@H]3C)cnc2C(N)=O)sn1
(A) 7.00 to 8.00

(Q) Dear colleague, I am looking for the recorded pIC50 of the following compound: C[C@@H]1[C@H](N2Cc3cc(Br)ccc3C2=O)CCCN1c1cnc(C(N)=O)c(Nc2cnn(C)c2)n1
(A) ≥ 8.00

(Q) Dear colleague, I am looking for the recorded pIC50 of the following compound: CN(C)C(=O)N[C@@H]1CCCN(c2cnc(C(N)=O)c(Nc3ccc(C4(C)CCN(C5CCCC5)CC4)cc3)n2)[C@H]1CO
(A) 6.00 to 7.00

(Q) Dear colleague, I am looking for the recorded pIC50 of the following compound: C[C@@H]1[C@H](NC(=O)c2ccc3nccn3c2)CCCN1c1cnc(C(N)=O)c(Nc2cnn(C)c2)n1
(A) ≥ 8.00

(Q) Dear colleague, I am looking for the recorded pIC50 of the following compound: C[C@@H]1[C@H](NC(=O)c2ccc(C3CC3)cc2)CCCN1c1cnc(C(N)=O)c(Nc2ccc(C3CCOCC3)cc2)n1
(A) ≥ 8.00

(Q) Dear colleague, I am looking for the recorded pIC50 of the following compound: C[C@@H]1CC[C@H](NC(=O)N(C)C)CN1c1cnc(C(N)=O)c(Nc2cnn(C)c2)n1
(A) 7.00 to 8.00

(Q) Dear colleague, I am looking for the recorded pIC50 of the following compound: C[C@@H]1[C@H](NC(=O)c2ccc(C3CC3)nc2)CCCN1c1cnc(C(N)=O)c(Nc2ccc(OC3CCOCC3)cc2)n1
(A) ≥ 8.00

(Q) Dear colleague, I am looking for the recorded pIC50 of the following compound: C[C@@H]1[C@H](NC(=O)c2ccc(C3CC3)cc2F)CCCN1c1cnc(C(N)=O)c(Nc2ccc(N3CCN(C)CC3)cn2)n1
(A) 7.00 to 8.00

(Q) Dear colleague, I am looking for the recorded pIC50 of the following compound: C[C@@H]1[C@H](NC(=O)c2ccc(C(O)(C(F)(F)F)C(F)(F)F)cc2)CCCN1c1cnc(C(N)=O)c(Nc2cnn(C)c2)n1
(A) ≥ 8.00

(Q) Dear colleague, I am looking for the recorded pIC50 of the following compound: C[C@@H]1[C@H](NC(=O)c2ccc3c(c2)OC(F)(F)O3)CCCN1c1cnc(C(N)=O)c(Nc2cnn(C)c2)n1
(A) ≥ 8.00

(Q) Dear colleague, I am looking for the recorded pIC50 of the following compound: C[C@H]1CC[C@@H](NC(=O)c2ccc(C(C)(C)O)cc2)CN1c1nnc(C(N)=O)c(Nc2cnn(C)c2)n1
(A) ≥ 8.00

Origin of values: patent US20210070748A1
